# Tested on: SW-620 colon
# testDetails: NCI tumour cell line growth inhibition, 48 h
Would you mind telling me the reported TGI of each entry?

Form entry - test system: SW-620 colon; read-out: TGI; compound: `COC(=O)CC(=O)OC`
> 100 µM

Give TGI (SW-620 colon) of the following compound: `Cc1ccc(-n2c(=S)[nH]c3ccc(Br)cc3c2=O)cc1`
> 100 µM

Lab note: need TGI for `O=C(O)c1ccccc1/C=C1\Cc2ccccc2C1=O` on SW-620 colon, anyone have it?
> 100 µM

Query TGI on SW-620 colon for `O=c1oc2ccccc2c(O)c1/C=N\c1nc(-c2ccc(O)c(O)c2)cs1`
9.64 µM

Test system SW-620 colon; read-out TGI; what value for `CN(C)C(=S)/N=c1\ss/c(=N\C(=S)N(C)C)n1C1CCCCC1` ?
> 100 µM

Form field: TGI recorded for `COC(=O)CNC(=O)CCSc1nnc(COc2ccc(Cl)cc2)n1-c1ccccc1` with SW-620 colon (enter value)
> 100 µM

Requested read-out TGI, target or system SW-620 colon, entry `Cc1ccc(/C(=C/C=C(/C#N)C(N)=O)Sc2ncnn2C)cc1`
15.6 µM

Request - read-out TGI | tested on SW-620 colon | compound CC1(C=O)C(=O)CCC2(C)C3CC(=O)OC3CCC12 (stereo unspecified)
> 100 µM

Any idea what TGI came out for `C#CCN(Cc1ccc2nc(-c3ccccc3)c(Cl)nc2c1)c1cc(OC)c(OC)c(OC)c1` on SW-620 colon?
34.2 µM

Entry CC/C=C/c1cc2c(c3[nH]ccc13)[C@@H](C)CC2C (stereo partly specified) (tested in a mixture with another compound) , system SW-620 colon: what TGI was measured?
32.3 µM

Requested read-out TGI, target or system SW-620 colon, entry Nc1ncnc2c1ncn2C1OC(CO)C2OC21 (stereo unspecified)
> 100 µM

----------
# System: SF-539 CNS
# testDetails: NCI tumour cell line growth inhibition, 48 h
propertyName: TGI (µM)
Kindly answer with a numeric value in µM, unit omitted.

Please look up its TGI: `Cc1ccc(-c2cc(-c3cc(-c4ccc(C)cc4C)n[nH]3)[nH]n2)c(C)c1`
34

What TGI value was documented for this compound, `COc1cccc(C=O)c1[O-].COc1cccc(C=O)c1[O-].[Cu+2]` ?
41.4

# query: TGI of entry `COc1ccc(-c2cn(-c3cccc(C(=O)/C=C/c4cc(OC)c(OC)c(OC)c4)c3)c(=O)[nH]2)cc1`
4.09

----------
# Tested on: PC-3 prostate
# testDetails: NCI tumour cell line growth inhibition, 48 h; in the data active = GI50 below about 0.43 µM; inactive = the rest
API: response.call in active, inactive

Outcome logged for CC(=O)O[C@H]1[C@@H]2OC(=O)C3(CC3)C2C[C@H]2O[C@]2(C)CC/C=C(\C)CCC[C@@H]1C (stereo not given in full) in this assay:
inactive

Recorded test call requested for `Nc1c(C(=O)c2cccc(-c3ccncc3)c2)cnn1-c1ccc(F)cc1`
inactive

What did this assay record as the result for CN1C(=O)C23CC4(C56CC78SSC(CO)(C(=O)N7C5Nc5ccccc56)N(C)C8=O)c5ccccc5NC4N2C(=O)C1(CO)SS3 (stereo not given) ?
active

Can you look up the reported call for `C/C(=C\C(=N\N=C(N)N)c1ccc(Cl)cc1)c1ccc(Cl)cc1` for me?
inactive

Could you kindly confirm the outcome this assay logged for `c1ccc(-c2cccc(-c3ccccn3)n2)nc1` ?
active

# fetch the recorded call for `CN1CCN(Cc2ccc(NC(=O)c3cncc(C#Cc4cnc5ccc(Cl)nn45)c3)cc2C(F)(F)F)CC1` here
inactive

Hey, what did the test say about `N=C(N)c1ccc(-c2ccc(-c3ccc(F)cc3)s2)nc1` ?
inactive

// return assay outcome for `COc1ccc2[nH]c(=O)c(/C=C/C(=O)c3ccccc3OC)cc2c1`
inactive

Field: outcome | Entry: CC1CN=C(c2cccc(-c3ccc(-c4ccccc4)o3)c2)N1 (stereo not given)
inactive

What did this assay record as the result for `NC(=O)c1cc(Cl)ccc1NC(=O)COc1ccccc1` ?
inactive
